metric-name: melting point

Use the examples below as a reference point.
>>> print(df.to_string())
                                   compound    metric_name            val
0  CN1C[C@H](CN2CCN(C(c3ccccc3)c3ccccc3)CC2)C=C2c3cccc4c3c(cn4C)C[C@H]21  melting point  172 to 175 °C
1  O=[N+]([O-])c1ccc(Nc2nc(Cl)nc3nc[nH]c23)cc1  melting point       > 270 °C
2  O=C(O)COc1cc(F)ccc1C(=O)NCc1cccc([N+](=O)[O-])c1  melting point  148 to 151 °C
3  CCCCCc1ccc(-c2nc(C)c(C(C)=NNC(=N)N)s2)cc1  melting point         210 °C
4  CC(=O)OCC(=O)C1=CCC2C3CCC4=CC(=O)CCC4(C)C3CCC12C (centres undefined)  melting point  146 to 148 °C

Provide melting point values for the following items, in order.
1. COc1ccc(C(=O)Nc2ccc3oc4c(c3c2)CCCC4)cc1
2. CCOC(=O)c1cn(C2CC2)c2nc(N3C[C@@H](CNC(C)=O)[C@H](F)C3)c(F)cc2c1=O (relative stereo)
3. C#CC1(COC(C)=O)OC(n2ccc(=O)[nH]c2=O)C(OC(C)=O)C1OC(C)=O (centres undefined)
4. COC(=O)C(C#N)=C(N)c1c(-c2ccccc2)noc1N
5. Nc1c(F)c(N2CCC(n3ccnn3)C2)c(F)c2c1c(=O)c(C(=O)O)cn2-c1ccc(F)cc1F (centres undefined)

197 to 198 °C
211 to 213 °C
160 to 162 °C
256 °C
308 to 309 °C

---

metric-name: melting point

Sample answers from the record:
In [3]: df
Out[3]:
                                   compound            val
0  OC(c1cc(F)ccc1F)c1ccncc1Cl (stereo not given)  169 to 170 °C
1          OCCCc1ccc2c(c1)Cc1cc(CCCO)ccc1-2  160 to 180 °C
2  c1cc(-n2cccc2)cc(-n2cnc3cc(-c4ccco4)ccc32)c1  137 to 139 °C
3        COC(=O)CCc1c(O)ncc2cc(OC)c(OC)cc12  178 to 180 °C

Give one value of melting point per listed compound.
1. CNCC1Cc2cc(-c3ccc(F)cc3)cc(F)c2O1 (stereo not given)
2. COC(=O)c1ccccc1NC(=O)OCC1CCN(CCNS(C)(=O)=O)CC1

["> 250 °C", "106 to 108 °C"]

Working through the 4 compounds below one at a time, give melting point for each.
1. O=C(Nc1ccc(-n2nc(C(F)(F)F)cc2C2CC2)c(F)c1)c1ccc2nn[nH]c2c1
2. C#CC(O)c1ncn(C(c2ccccc2)(c2ccccc2)c2ccccc2)n1 (stereo not given)
3. Nc1sc(-c2ccco2)c(CN(C2CCCCC2)C2CCCCC2)c1C(=O)c1ccc(Cl)cc1
4. CN(C)CCCCCCNC(=O)c1ccc(-c2cnc3c(c2)N(Cc2ccccc2)C(=O)CN3)cc1

["235 to 237 °C", "138 to 139 °C", "158 to 160 °C", "> 200 °C"]

---

metric-name: melting point

In [3]: df
Out[3]:
                                   compound            val
0  CCON=C(CC)C1=C(O)CC(c2c(C)c3c(c(C)c2Cl)CC(C)(CC)C3)CC1=O (centres undefined)    56 to 58 °C
1  Cc1noc(C)c1S(=O)(=O)n1nnc2cc3c(cc21)OC(F)(F)O3  120 to 123 °C
2  COc1cc(OC)nc(NC(=O)NS(=O)(=O)c2c([Si](C)(C)C)ccc3c2S(=O)(=O)C(C)C3)n1 (centres undefined)  188 to 190 °C

Would you mind giving melting point for every compound in the list below?
1. CC(C)(C)OC(=O)NC(CC(O)CNC(Cc1ccccc1)C(O)CNC(=O)OCc1ccccc1)c1ccccc1 (centres undefined)
2. COC(=O)c1cc(C(=O)O)c2c(Cl)cc(Cl)cc2n1

120 to 121 °C
260 to 262 °C

Consider the following items and state reported melting point for each.
1. CC1(C)CC(=O)c2c(-c3cncs3)cn(-c3ccccn3)c2C1
2. NS(=O)(=O)c1ccc(-n2nc(C(F)(F)F)cc2-c2ccc(-c3cscn3)c(F)c2)cc1F
3. Nc1nc(O)c2c(n1)NCC(CCC1CCC(N[C@@H](CCC(=O)O)C(=O)O)CC1)C2 (some centres undefined)

1: 167 to 169 °C; 2: 196 to 198 °C; 3: 210 to 225 °C

---

metric-name: melting point

In [3]: df
Out[3]:
                                   compound            val
0  CN(C)CCOC(=O)C1CCc2c([nH]c3ccc(Cl)cc23)C1 (stereo not given)  123 to 124 °C
1  Fc1ccc(F)c(CN2CCNc3ncc(-c4cnc(N5CCOCC5)nc4)cc32)c1Cl  250 to 251 °C
2  CCc1c(C(=O)NCCCCCCC(=NOCCN)c2ccc(C(F)(F)F)cc2)nc(-c2ccccc2Cl)n1-c1ccc(Cl)cc1    90 to 95 °C
3      CCNc1nc(NCc2ccco2)nc(Nc2ccc(O)cc2)n1    76 to 78 °C
4              CCOC(=O)c1cc2c(F)ccc(Br)c2s1    73 to 74 °C
5  Cc1ccc(S(=O)(=O)OCC2CCc3cc(Br)ccc3C2)cc1 (stereo not given)    87 to 89 °C

Quick one: give me melting point for each item below, same order please.
1. CC(C)(OCCOCc1nn(Cc2ccccc2)c2ccccc12)C(=O)O
2. CCN(CC)CCNC(=O)c1cccc2c(=O)c(C)c(-c3ccc(OC)cc3)oc12
3. CC1=C(C#CC(C)C=CO)C(C)(C)CCC1=O (stereo not given)
4. O=[N+]([O-])c1ccc(-n2ccnc2SCc2ccccc2N2CCOCC2)nc1

["94 to 95 °C", "126 to 127 °C", "102 to 105 °C", "199 to 202 °C"]

---

Assign melting point to each entry below.

The following compounds have reported results that may help.
In [3]: df
Out[3]:
                                   compound            val
0  CC(C)CCOc1ccc(S(=O)(=O)C2(C(=O)O)CCN(Cc3ccccc3)CC2)cc1         106 °C
1  CC(C)(C(=O)OCC(=O)c1ccccc1)n1c(=O)[nH]c2cc(F)c(F)cc2c1=O  174 to 176 °C
2        Cc1cccc2ncc(C(=O)NC3CCCC3)c(=O)n12  158 to 160 °C
3  O=C1CCC2(CCC(=O)c3cc([N+](=O)[O-])ccc32)C(=O)N1 (stereo not given)  273 to 275 °C
4          COc1ccc(OCCCCCc2cc(C)on2)c(Cl)c1    45 to 47 °C

Hey, can you go through the list below and give me melting point for every item?
1. COc1ccc(-n2nc(OC(C)C)cc2-c2ccc(OCCNC(N)=O)cc2)cc1
2. CCNc1c(C(F)(F)F)cc([N+](=O)[O-])c(NN(C)C)c1[N+](=O)[O-]
3. CC(C)(C=NO)n1ccnc1
4. COc1cc(C(=O)C#Cc2ccccc2)cc(OC)c1OC
5. CC(C)Oc1c(C(=O)Nc2ccccc2)oc2ccc(Cl)cc12

1: 139 to 140 °C; 2: 108 to 116 °C; 3: 117 to 120 °C; 4: 94 to 96 °C; 5: 82 to 83 °C

---

Hi there, I'd appreciate the recorded melting point for every entry that follows.

The cases that follow already have their melting point on record.
                                   compound            val
0  CCCn1c(=O)c2c(nc(C=Cc3cc(OC)c(OC)cc3S(=O)(=O)Nc3ccccc3)n2C)n(CCC)c1=O  247 to 249 °C
1  CN(C)S(=O)(=O)N(C)c1ccc(C(O)(C(F)(F)F)C(F)(F)F)cc1    63 to 65 °C
2  Cn1cnc(S(=O)(=O)NCCc2ccc(OCC(=O)O)cc2)c1  203 to 204 °C
3  COC1CCN2C(=O)c3cccc(N)c3C2C1 (stereo not given)    60 to 62 °C

Next, consider the following compound.
Provide measured melting point value, entry: CCCc1c(O)cccc1Oc1ccccc1C#N
103 to 107 °C

---

So I've got a bunch of compounds here, and I need their melting point values.

Example entries and their recorded answers appear below.
                                   compound    metric_name            val
0  CC(C)c1cc(C(C)C)c(-c2csc(Br)n2)c(C(C)C)c1  melting point         236 °C
1  CCOC(=O)CCc1ccc(OCc2ccc(OCc3nc(-c4ccccc4)oc3C)cc2)cc1OCC  melting point    64 to 65 °C
2  O=C(NCCOc1ccc(CC(Oc2ccccc2)C(=O)O)cc1[N+](=O)[O-])c1ccc(-c2ccccn2)cc1 (stereo not drawn)  melting point  178 to 179 °C
3  CCc1cc(NCc2ccc(-c3ccccc3C#N)cc2)n2ncc([N+](=O)[O-])c2n1  melting point  205 to 207 °C
4  COC(=O)C(=Cc1cccc([N+](=O)[O-])c1)C(=O)OC  melting point    78 to 80 °C
5  CCOC(=O)C1=CC2(CCC1S(=O)(=O)Nc1ccc(F)cc1Cl)OCCS2 (stereo not drawn)  melting point  133 to 134 °C
6  CCOC(=O)C(C(=O)OCC)C1c2ccccc2C(F)(F)C(F)(F)c2ccccc21  melting point  144 to 146 °C
7        CNc1nc2ncnn2c(NC2CCCC2)c1-c1ccccc1  melting point  158 to 160 °C
8      COC(=O)c1cc2c3ccccc3n(Cc3ccccc3)c2s1  melting point  158 to 159 °C
9  CCCc1c(CSc2ncccc2OCC(=O)OCC)ccc(C(C)=O)c1O  melting point   98 to 100 °C

Hello, I would appreciate it if you could give melting point for each entry below.
1. Cc1ccc2nc3ccc(=O)c(Cl)c-3sc2c1
2. Cc1ccc(C)c2c(C=O)c3ccccc3c(C=O)c12
3. CC(C)(C)NC1=NCCNC(c2ccccc2)=C1
4. COc1ccc(C(=O)COc2ccc3oc(C(=O)c4ccc(OC)cc4)c(C)c3c2)cc1
5. Cn1c(-c2c(Cl)cccc2Cl)nc2cc(C(=O)O)ccc21
6. CCOC(=O)C1=C(C)Nc2nc(N)nc(N)c2C1c1cc(OC)c(OC)c(OC)c1 (stereo not drawn)
7. CC1(C)NC(=O)CN1C(=O)CN

218 °C
158 to 162 °C
93 to 97 °C
155 to 157 °C
> 250 °C
126 °C
145 to 148 °C
